system: dd-strain male mice; assay: Acute toxicity test (minimum lethal dose, oral); type: in vivo; settings: oral administration, three mice per group, mortality seven days after administration
Catalogue of MLD values
OBSERVED_PROPERTY: MLD

{"COMPOUND": "COc1ccc(/C=C/c2nc3c(c(=O)n(C)c(=O)n3C)n2C)c(OC)c1 [Compound 28, (E)-8-(2,4-Dimethoxystyryl)caffeine]", "OBSERVED_PROPERTY": "MLD", "TEST_VALUE": "> 300 mg/kg"}
{"COMPOUND": "COc1ccc(/C=C/c2nc3c([nH]2)c(=O)n(C)c(=O)n3C)cc1Br", "OBSERVED_PROPERTY": "MLD", "TEST_VALUE": "> 100 mg/kg"}
{"COMPOUND": "CCn1c(=O)c2[nH]c(/C=C/c3ccc(F)c(F)c3)nc2n(CC)c1=O", "OBSERVED_PROPERTY": "MLD", "TEST_VALUE": "> 300 mg/kg"}
{"COMPOUND": "CCn1c(=O)c2c(nc(/C=C/c3cccc(Br)c3)n2C)n(CC)c1=O", "OBSERVED_PROPERTY": "MLD", "TEST_VALUE": "> 100 mg/kg"}
{"COMPOUND": "CCn1c(=O)c2c(nc(/C=C/c3cc(C(F)(F)F)cc(C(F)(F)F)c3)n2C)n(CC)c1=O", "OBSERVED_PROPERTY": "MLD", "TEST_VALUE": "> 100 mg/kg"}
{"COMPOUND": "CCn1c(=O)c2c(nc(/C=C/c3cccc(F)c3C)n2C)n(CC)c1=O", "OBSERVED_PROPERTY": "MLD", "TEST_VALUE": "> 100 mg/kg"}
{"COMPOUND": "CCn1c(=O)c2c(nc(/C=C/c3ccc(OCCCCBr)cc3)n2C)n(CC)c1=O", "OBSERVED_PROPERTY": "MLD", "TEST_VALUE": "> 100 mg/kg"}
{"COMPOUND": "CCn1c(=O)c2c(nc(/C=C/c3ccc(C(F)(F)F)cc3)n2C)n(CC)c1=O", "OBSERVED_PROPERTY": "MLD", "TEST_VALUE": "> 300 mg/kg"}

All values here come from patent EP0590919A1.
